- Test system: hedgehog signaling pathway
- ASSAY INFO: Gli-Luc Reporter Assay for Hh Pathway Inhibition (TMHh-12 cells, pTA-8×Gli-Luc reporter)
- Type: cell-based, Mouse
- TEST CONTEXT: Mus musculus, TMHh12, enzymatic and cellular assays for the inhibition of hedgehog signaling pathways; read-out: IC50 Ranges
RESULT TYPE: IC50

Would you please look over these solved cases?
Cc1ccc(Nc2cccc3c2CCN(CC(C)(C)O)C3)cc1C(=O)Nc1ccccc1	1 to 10 nM
COc1ccc(-c2cc(Nc3cccc4c3CCN([C@@H]3CCS(=O)(=O)C3)C4)ccc2C)nn1	1 to 10 nM
CC(CO)(CO)C(=O)N1CCc2c(cccc2Nc2ccc(Cl)c(-c3ncc(-c4ccccc4)[nH]3)c2)C1	0.001 to 1 nM
Cc1ccc(-c2cc(Nc3cccc4c3CCN(CC(C)(F)F)C4)ccc2C)nc1	0.001 to 1 nM
Clc1ccc(Nc2cccc3c2CCNC3)cc1-c1ncc(-c2ccccc2)[nH]1	10 to 100 nM

Hey, can you go through the list below and give me IC50 for every item?
1. CNC(=O)c1ccc(Nc2cccc3c2CCN(S(C)(=O)=O)C3)cc1-c1ccc(C#N)cc1
2. CC1(C)CC(N2CCc3c(cccc3Nc3ccc(Cl)c(-c4ncc(-c5ccccc5)[nH]4)c3)C2)CC(C)(C)N1
3. COc1cccc(-c2cc(Nc3cccc4c3CCN(S(C)(=O)=O)C4)ccc2C)n1

["100 to 1000 nM", "0.001 to 1 nM", "100 to 1000 nM"]

====

Kindly state IC50 for each of the entries shown.
- Test system: hedgehog signaling pathway
- ASSAY INFO: Gli-Luc Reporter Assay for Hh Pathway Inhibition (TMHh-12 cells, pTA-8×Gli-Luc reporter)
- Type: cell-based, Mouse
- TEST CONTEXT: Mus musculus, TMHh12, enzymatic and cellular assays for the inhibition of hedgehog signaling pathways; read-out: IC50 Ranges

CS(=O)(=O)N1CCc2c(cccc2Nc2ccc(Cl)c(-c3nc(-c4ccccc4)co3)c2)C1 [Compound 96]	100 to 1000 nM
CS(=O)(=O)N1CCc2c(cccc2Nc2cc(-c3ccc(C#N)cc3)c(Cl)cn2)C1 [Compound 171]	100 to 1000 nM
Cc1ccc(-c2cc(Nc3cccc4c3CCN(CC(=O)N(C)C)C4)ccc2C)nc1 [Compound 233]	1 to 10 nM
CCN1CCC(N2CCc3c(cccc3Nc3ccc(Cl)c(-c4ncc(-c5ccccc5)[nH]4)c3)C2)CC1 [Compound 6]	0.001 to 1 nM
CS(=O)(=O)N1CCc2c(cccc2Nc2cc(C(=O)Nc3ccccc3)c(Cl)cn2)C1 [Compound 203]	1 to 10 nM

Hey, can you go through the list below and give me IC50 for every item?
1. COc1ccc(-c2cc(Nc3cccc4c3CCN(C3CCS(=O)(=O)C3)C4)ccc2C)nn1 (stereo not shown) [Compound 256]
2. CS(=O)(=O)N1CCc2c(cccc2Nc2ccc(Cl)c(C(=O)Nc3ccccc3)n2)C1 [Compound 226]
3. CCS(=O)(=O)CCN1CCc2c(cccc2Nc2ccc(C)c(-c3ncccc3F)c2)C1 [Compound 283]
4. Cc1ccc(Nc2cccc3c2CCN(C(=O)C(C)(CO)CO)C3)cc1-c1ncc(-c2cccnc2)[nH]1 [Compound 76]
5. Cc1ccc(Nc2cccc3c2CCN(S(C)(=O)=O)C3)cc1-c1ccc(CNCC(O)CO)cc1 (stereo not shown) [Compound 157]
6. Cc1ccc(Nc2cccc3c2CCN(S(C)(=O)=O)C3)cc1-c1ccc(Cl)cn1 [Compound 173]

1. 0.001 to 1 nM
2. 0.001 to 1 nM
3. 1 to 10 nM
4. 1 to 10 nM
5. 1000 to 10000 nM
6. 0.001 to 1 nM
